Where do these numbers come from? They come from PubChem BioAssay (NCI).

test: NCI Yeast Anticancer Drug Screen. Data for the bub3 strain (AID 167); conditions: S. cerevisiae bub3 mutant strain, at 50.0 µM, stronger effect = higher value
About 79,000 compounds went through this panel and 15% of them were active in at least one assay; those are over-represented in the sample as a whole.
# growth inhibition annotations
Form entry: value (%) — number only.

Field: example entries. Status: answers known.
INSERT INTO results (compound, uom, measured_result) VALUES
  ('COc1ccc2ccc([Se]c3ccc4ccc(OC)cc4c3)cc2c1', '%', 7.55),
  ('O=C(CCBr)Nc1ccc(Cl)cc1C(=O)c1ccccc1', '%', 54.8),
  ('CCCc1ccc(CCN)cc1', '%', -2.3),
  ('C1C[OH+]CC[OH+]CC[OH+]CC[OH+]CC[OH+]1.[Cl-].[V]', '%', -12),
  ('O=C1C2C3c4ccccc4C(C2C(=O)N1c1ccccc1)[n+]1ccccc13 (configuration not stated)', '%', 7.1),
  ('Nc1noc(N)n1', '%', -18.1);

Then this compound:
Looking for the measured growth inhibition of CC(C)c1cc(C(C)C)c(S(=O)(=O)N=[N+]=[N-])c(C(C)C)c1 , can you help?
-16.9
